- Test system: Staphylococcus aureus
- assay-name: Antibacterial activity against gentamicin-resistant Staphylococcus aureus ATCC 33592 after 24 hrs by spectrophotometric analysis
- Assay type: functional, organism-based
- cond: Staphylococcus aureus, ATCC 33592, 24 h; read-out: IC50
measure: log10 of IC50 (log10 of the value in µg/mL)
Log scale reminder: IC50 in µg/mL, then log10 taken.

INSERT INTO assay_data (molecule, recorded_number) VALUES
  ('CCn1cc(C(=O)O)c(=O)c2cc(F)c(N3CCN(C(c4ccco4)c4nnnn4C(C)(C)C)CC3)cc21 (stereo not given)', -0.70);

Lab book: log10 of IC50 of CCn1cc(C(=O)O)c(=O)c2cc(F)c(N3CCN(C(c4ccco4)c4nnnn4C4CCCCC4)CC3)cc21 (stereo not given) noted as -0.40

Reported log10 of IC50 of COc1ccc(C(c2nnnn2C2CCCCC2)N2CCN(c3cc4c(cc3F)c(=O)c(C(=O)O)cn4Cc3ccc(C(F)(F)F)cc3)CC2)c(OC)c1OC (stereo not given) : 1.70

Item: CCn1cc(C(=O)O)c(=O)c2cc(F)c(N3CCN(C(c4ccc(OC)c5ccccc45)c4nnnn4C4CCCCC4)CC3)cc21 (stereo not given) | log10 of IC50: 0.56

----------
- Test system: Staphylococcus aureus
- assay-name: Antibacterial activity against Staphylococcus aureus ATCC 25923 after 24 hrs by spectrophotometric analysis
- Assay type: functional, organism-based
- cond: Staphylococcus aureus, ATCC 25923, 24 h; read-out: IC50
measure: IC50 (µg/mL)
Numbers only; they are read as µg/mL.

Example results:
INSERT INTO results (compound, recorded_number) VALUES
  ('CC(C)(C)n1nnnc1C(c1cccc2ccccc12)N1CCN(c2cc3c(cc2F)c(=O)c(C(=O)O)cn3Cc2ccc(C(F)(F)F)cc2)CC1 (centres undefined)', 50),
  ('O=C(O)c1cn(Cc2ccc(C(F)(F)F)cc2)c2cc(N3CCN(C(c4cccc5ccccc45)c4nnnn4C4CCCCC4)CC3)c(F)cc2c1=O (centres undefined)', 50),
  ('CCn1cc(C(=O)O)c(=O)c2cc(F)c(N3CCN(C(c4ccccc4)c4nnnn4C4CCCCC4)CC3)cc21 (centres undefined)', 0.4);

Entry CC(C)c1ccc(C(c2nnnn2C(C)(C)C)N2CCN(c3cc4c(cc3F)c(=O)c(C(=O)O)cn4Cc3ccc(C(F)(F)F)cc3)CC2)cc1 (centres undefined) , tested on Staphylococcus aureus, has a reported IC50 of 1.8

Given the compound CC(C)(C)n1nnnc1C(c1ccccc1)N1CCN(c2cc3c(cc2F)c(=O)c(C(=O)O)cn3Cc2ccc(C(F)(F)F)cc2)CC1 (centres undefined) and test system Staphylococcus aureus, the measured IC50 is 50

Measured IC50 for this entry CCn1cc(C(=O)O)c(=O)c2cc(F)c(N3CCN(C(c4ccc(F)cc4)c4nnnn4C(C)(C)C)CC3)cc21 (centres undefined) on Staphylococcus aureus: 0.3

GET /values?item= CCn1cc(C(=O)O)c(=O)c2cc(F)c(N3CCN(C(c4cccc5ccccc45)c4nnnn4C4CCCCC4)CC3)cc21 (centres undefined) &system= Staphylococcus aureus returns IC50: 0.77

Form field IC50 for item O=C(O)c1cn(C2CC2)c2cc(N3CCNCC3)c(F)cc2c1=O on Staphylococcus aureus: 0.3

Query O=C(O)c1cn(Cc2ccc(C(F)(F)F)cc2)c2cc(N3CCN(C(c4ccccc4)c4nnnn4C4CCCCC4)CC3)c(F)cc2c1=O (centres undefined) on Staphylococcus aureus; IC50 returned: 5.2

Bench note, Staphylococcus aureus: entry CCn1cc(C(=O)O)c(=O)c2cc(F)c(N3CCN(C(c4ccccc4)c4nnnn4C(C)(C)C)CC3)cc21 (centres undefined) , its IC50 = 0.37

The reported IC50 value, Staphylococcus aureus, for CCn1cc(C(=O)O)c(=O)c2cc(F)c(N3CCN(C(c4cccc5ccccc45)c4nnnn4C(C)(C)C)CC3)cc21 (centres undefined) reads 0.7

Observed IC50 on Staphylococcus aureus, entry CCn1cc(C(=O)O)c(=O)c2cc(F)c(N3CCN(C(c4ccc(C(C)C)cc4)c4nnnn4C(C)(C)C)CC3)cc21 (centres undefined) , equals 50

Given the compound CCn1cc(C(=O)O)c(=O)c2cc(F)c(N3CCN(C(c4ccco4)c4nnnn4C4CCCCC4)CC3)cc21 (centres undefined) and test system Staphylococcus aureus, the measured IC50 is 0.22

// compound CCn1cc(C(=O)O)c(=O)c2cc(F)c(N3CCN(C(c4ccc(F)cc4)c4nnnn4C4CCCCC4)CC3)cc21 (centres undefined) , assay Staphylococcus aureus, IC50 value: 0.5

Let me check: CCn1cc(C(=O)O)c(=O)c2cc(F)c(N3CCN(C(c4ccc(C(C)C)cc4)c4nnnn4C4CCCCC4)CC3)cc21 (centres undefined) , system Staphylococcus aureus, measured IC50 is 8

The reported numbers originate from ChEMBL document CHEMBL3232987.
